molecular target: purified HLA-DRB1*0101 (Homo sapiens, UniProt P01903+P01911, A100R/D57E/F55L/F60I/F76Y/I96L/L162R/M171V/P40L/Q125E/R42F/V115G/Y59C); experiment: biochemical
Where a SMILES comes first, the peptide text is derived from it.
readout_name: IC50 (pM)
API: value field is a number in pM; no unit string.

Examples with their reported IC50 follow.
{"columns": ["compound", "IC50 (pM)"],
 "data": [
  ["CC[C@H](C)[C@H](NC(=O)CNC(=O)[C@@H](NC(=O)[C@H](CC(C)C)NC(=O)[C@H](Cc1c[nH]cn1)NC(=O)[C@H](CC(C)C)NC(=O)[C@H](Cc1ccccc1)NC(=O)[C@H](CC(C)C)NC(=O)[C@H](CO)NC(=O)[C@H](C)N)C(C)C)C(=O)N1CCC[C@H]1C(=O)N[C@H](C(=O)N[C@@H](Cc1c[nH]cn1)C(=O)N[C@@H](CCCNC(=N)N)C(=O)N[C@@H](Cc1c[nH]cn1)C(=O)O)[C@@H](C)O", 130],
  ["CC[C@H](C)[C@H](NC(=O)[C@H](CC(=O)O)NC(=O)[C@H](CC(N)=O)NC(=O)[C@H](Cc1ccccc1)NC(=O)[C@@H](NC(=O)[C@H](CCCCN)NC(=O)[C@H](CCCNC(=N)N)NC(=O)[C@H](C)NC(=O)[C@H](CS)NC(=O)[C@H](CC(N)=O)NC(=O)[C@H](CCCNC(=N)N)NC(=O)[C@@H](NC(=O)[C@H](Cc1ccccc1)NC(=O)[C@@H](N)CCSC)[C@@H](C)CC)C(C)C)C(=O)N[C@@H](CCCCN)C(=O)O", 2000]
]}

IC50 for CC[C@H](C)[C@H](N)C(=O)N[C@@H](CCC(N)=O)C(=O)N[C@@H](CC(C)C)C(=O)N[C@H](C(=O)N[C@@H](Cc1ccccc1)C(=O)N[C@@H](CO)C(=O)N[C@@H](CO)C(=O)N[C@@H](CCSC)C(=O)N[C@H](C(=O)N[C@@H](CC(N)=O)C(=O)N1CCC[C@H]1C(=O)N[C@@H](CC(C)C)C(=O)N[C@H](C(=O)N[C@H](C(=O)N[C@H](C(=O)O)[C@@H](C)O)[C@@H](C)CC)C(C)C)[C@@H](C)CC)C(C)C [GTOV L1826-1840] (H-IQLVFSSMINPLVIT-OH) is 230
